- Method Summary: Neurotoxicity assay: MTS viability of primary cortical neuronal cultures
- Assay type: cell-based, mouse
- Experimental Parameters: BL6Jx129sv, mouse, primary cortical neuronal cultures, Neuronal cells, test compound 10 uM; read-out: Cytotoxicity (% viable at 1 and 10 uM)
Please assign false whenever viability at 4 days, 10 uM is at or above 80%, and true whenever it is below.

*Q* For "CCN(CC)Cc1ccc2c(Cl)cc(Cl)c(O)c2n1" , is the recorded viability at 4 days, 10 uM below the cut-off of 80%?
*A* true

*Q* Threshold test, viability at 4 days, 10 uM < 80%: "O=C(NCCc1cnc[nH]1)c1cc(O)c2cccc(O)c2n1"
*A* false

*Q* Record "Cc1ccc(-n2cnc3c(O)c(Cl)cc(Cl)c3c2=O)nc1" : is its viability at 4 days, 10 uM strictly below 80%?
*A* false

*Q* Below 80% on viability at 4 days, 10 uM? Entry "CCCn1c(CNC)nc2c(O)c(Cl)cc(Cl)c2c1=O"
*A* false

*Q* Lab note: viability at 4 days, 10 uM threshold 80%. Does this molecule come in strictly under it? "Nc1ccc2cccc(O)c2n1"
*A* true
